molecular target: T1, native human ApoC3 (human, UniProt P02656 21-99); test: SPR, IgG1 over ApoC3 on CM5 chip, pH 5.5
T1 construct: also called nhuApoC3; native huApoC3
T1 sequence (P02656 21-99): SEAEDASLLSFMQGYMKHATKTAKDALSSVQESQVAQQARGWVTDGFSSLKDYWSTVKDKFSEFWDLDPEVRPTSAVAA
Reported kon values follow for various binders

# Binder, kon
measured = [
    ("5E5VHWT_VL8 human IgG1 (antibody, V domains shown) VH: QLQLVESGGGLVQPGGSLRLSCAASGFTFGTYSMRWVRQVPRKALEWVSSISTDGGGTAYRDSVKGRFTISRDNAKNTLYLQMNNLKPEDTAIYYCVIAGYSDWGQGTQVTVSS VL: ATMLTQSPGSLSVVPGESASISCKTSQGLVHSDGKTYFYWFLQKPGQSPQQLIYQVSNRASGVPDRFTGSGSGTDFTLKISGVKAEDAGVYYCAHGTYYPHTFGSGTRLEIK", "731000 M⁻¹ s⁻¹"),
    ("5E5WT human IgG1 (antibody, V domains shown) VH: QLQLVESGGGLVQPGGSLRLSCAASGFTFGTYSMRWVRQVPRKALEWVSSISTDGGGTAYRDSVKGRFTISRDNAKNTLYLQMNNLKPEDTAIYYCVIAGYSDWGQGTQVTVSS VL: ATMLTQSPGSLSVVPGESASISCKTSQGLVHSDGKTYFYWFLQKPGQSPQQLIYQVSNRASGVPDRFTGSGSGTDFTLKISGVKAEDAGVYYCAQGTYYPHTFGSGTRLEIK", "340000 M⁻¹ s⁻¹"),
    ("5E5VH5_VL8 human IgG1 (antibody, V domains shown, Tested as human IgG1; the tested lot is not tied to them in words) VH: QLQLVESGGGLVQPGGSLRLSCAASGFTFGTYSMRWVRQVPRKALEWVSSIHTDGGGTAYRDSVKGRFTISRDNAKNTLYLQMNNLKPEDTAIYYCVIAGYSDWGQGTQVTVSS VL: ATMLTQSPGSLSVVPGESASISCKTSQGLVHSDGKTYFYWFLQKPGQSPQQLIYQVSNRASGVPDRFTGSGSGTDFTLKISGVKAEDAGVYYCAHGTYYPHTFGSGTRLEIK", "211000 M⁻¹ s⁻¹"),
    ("5E5VH12_VLWT human IgG1 (antibody, V domains shown) VH: QLQLVESGGGLVQPGGSLRLSCAASGFTFGTYSMRWVRQVPRKALEWVSSISTDGGGTAYRDSVKGRFTISRDNAKNTLYLQMNNLKPEDTAIYYCVIHGYSDWGQGTQVTVSS VL: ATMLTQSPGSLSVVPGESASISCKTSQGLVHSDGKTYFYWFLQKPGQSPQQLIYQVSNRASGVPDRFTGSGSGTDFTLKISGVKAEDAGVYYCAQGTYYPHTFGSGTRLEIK", "366000 M⁻¹ s⁻¹"),
]
